# reported cytotoxicity at 10 µM; entries follow
Experiment: Toxicity liver stage against HepG2, at 10uM
Format: cell-based
Parameters: test concentration 10 uM, cell line HepG2-A16-CD81EGFP
Details: human, HepG2-A16-CD81EGFP cells; read-out: INHIBITION
Give the number; % is assumed, so skip it.

Answered examples (8):
1) CCc1ccc(NC(=O)Nc2c(O)oc3ccccc3c2=O)cc1	5.95
2) Cc1nn(C)c(N2CCOCC2)c1CNCC1CCS(=O)(=O)C1 (configuration not stated)	-2.09
3) Cc1nc(-c2ccncc2)ncc1C(C)NC(=O)CN1CCOC1=O (configuration not stated)	3.11
4) Cc1cc(S(=O)(=O)N2CCCc3cc(Br)ccc32)sc1C(=O)O	2.91
5) O=C(CC1COCCN1)N1CCC2(CCc3ccccc32)CC1 (configuration not stated)	-148
6) Cc1ccsc1CN(C)CCc1scnc1C	-17.6
7) Cc1cc(NC(=O)CN2CCCC2c2noc(C)n2)n(C)n1 (configuration not stated)	-2.3
8) CC(C)CC(=O)N1CC(=O)c2sc(Nc3ccc(F)cc3)nc2C1	-2.28

Query block: Endpoint output: cytotoxicity at 10 µM of `COCCN(CCOC)C(=O)Nc1cc(C(F)(F)F)c[nH]c1=O` . Value?
Result block: -4.28

Query block: Can you check `COCC1(C(=O)N[C@H]2CN(c3ccnc(C)c3)C[C@@H]2C2CC2)CCC1` next?
Result block: -160

Query block: Input O=C(Nc1ccc(F)cc1)C1CCc2ccccc2N1 (configuration not stated)
Result block: 2.4

Query block: How about CNC(=O)C1(C)CN(Cc2cn(C)c3ccc(F)cc23)CCO1 (configuration not stated) ?
Result block: 0.187

====

The following compounds are listed with their measured cytotoxicity at 10 µM values.
Experiment: Toxicity liver stage against HepG2, at 10uM
Assay type: cell-based
Parameters: test concentration 10 uM, cell line HepG2-A16-CD81EGFP
Conditions: human, HepG2-A16-CD81EGFP cells; read-out: INHIBITION
Please give the number followed by its unit.

1. C[C@@H]1CN(Cc2ccncc2)C[C@]1(C)O	1.6%
2. CN(Cc1ccc(CCC(C)(C)O)cc1)Cc1cccnc1	15%

Attention now turns to another entry.
Query block: What value of cytotoxicity at 10 µM has been reported for the following compound? O=C(c1cccnc1)N1CCOC2(COCCN(c3cncnc3)C2)C1 (configuration not stated)
Result block: 4.53%

====

// reported cytotoxicity at 10 µM per item
Assay: Toxicity liver stage against HepG2, at 10uM
Assay type: cell-based
Set-up: test concentration 10 uM, cell line HepG2-A16-CD81EGFP
Settings: human, HepG2-A16-CD81EGFP cells; read-out: INHIBITION
Remember to quote the unit after the number.

// below: answered compounds
1. O=c1c(CN2CCOCC2)coc2ccc(Cl)cc12	-3.73%
2. CN(Cc1ccc(CCC(C)(C)O)cc1)CC1(CO)CC1	-4.32%
3. Cc1ccc(-c2noc(C3CCN3C(=O)c3ccc(=O)[nH]n3)n2)s1 (centres undefined)	7.53%

Query block: Look at this compound and give its reported cytotoxicity at 10 µM. Cc1nc(NC(=O)NC2CC(=O)N(C)C2)nn1C(C)C (centres undefined)
Result block: -8.15%

Query block: # repeat for `C=c1ccoc1=C1NN=C(CNCCn2cccn2)O1`
Result block: -5.02%

Query block: Follow-up item: `Cc1cccc(CN2C[C@@H]3CN(C4CCOCC4)C[C@@H]3C2=O)c1`
Result block: -130%

====

Assay: Toxicity liver stage against HepG2, at 10uM
Format: cell-based
Parameters: test concentration 10 uM, cell line HepG2-A16-CD81EGFP
Details: human, HepG2-A16-CD81EGFP cells; read-out: INHIBITION
recorded-endpoint: cytotoxicity at 10 µM (%)
Express the result in % but write the number alone.

These solved cases illustrate the format of a correct answer.
1) O=C(NCc1nc(NC2CCCC2)c2cc(Cl)ccc2n1)c1cscn1	7.12
2) Cc1nccc(NCc2cc3n(n2)CCCN(C(=O)C2CCC2)C3)n1	-128
3) O=C(c1ccsc1)N1CC(c2nc(-c3ccc[nH]c3=O)no2)C1	-7.39
4) Cc1nnc2n1CCN(CC(=O)NC(C)c1ccc3ccccc3c1)C2 (configuration not stated)	-7.91
5) CCCN1CCC(Cc2nn3c(C(C)C)nnc3s2)CC1	-6.17
6) CCc1nccn1C1CCCN(C(=O)c2ccc3c(c2)nnn3C)C1 (configuration not stated)	-10.6

Then there is this compound:
Query block: What value of cytotoxicity at 10 µM has been recorded for this entry: `Cc1ccc(N2CCc3c(CN(C)Cc4ccco4)cncc3C2)nn1`
Result block: -6.57

====

Here the recorded cytotoxicity at 10 µM is given for each entry.
Assay: Toxicity liver stage against HepG2, at 10uM
Format: cell-based
Parameters: test concentration 10 uM, cell line HepG2-A16-CD81EGFP
Details: human, HepG2-A16-CD81EGFP cells; read-out: INHIBITION
A number alone suffices; assume %.

Query block: # query: cytotoxicity at 10 µM of entry `NC(=O)c1ccc(NC(=O)Cn2cc(-c3ccccc3)ncc2=O)cc1`
Result block: 4.6

Query block: Again, but for `O=C(NC[C@H]1C[C@@H]2CCN1C[C@@H]2CN1CCOCC1)Nc1ccsc1`
Result block: 1.03

Query block: Record: Cc1ccc(CN2CCCC(c3nnc(CN4CCCCC4)n3C)C2)s1 (stereo not drawn)
Result block: -2.46

Query block: Subsequent entry: `Cc1noc([C@]23COC[C@H]2CN(S(=O)(=O)C2CC2)C3)n1`
Result block: 8.1

Query block: Repeat with `Cc1cc(C(=O)N2CCN(c3ncc4c(n3)CCOC4)CC2)sc1C`
Result block: 0.794

Query block: What would you report for `CC(C)(C)c1ncc2c(n1)CN(C(=O)c1ccc(C#N)nc1)C2` ?
Result block: -6.39

Query block: Try this compound too: Cc1cc(C)n(CC2CN(Cc3nc(-c4ccoc4)no3)CCO2)n1 (stereo not drawn)
Result block: -8.13

Query block: Moving on to `CCNc1cc2c(nn1)CCN(C(=O)Cc1ccc(C)s1)C2`
Result block: -0.375

Query block: Please give the result for Cc1nnc(N2CCCC3(CN(Cc4ccc(F)cc4)CCO3)C2)o1 (stereo not drawn) too.
Result block: -6.63

Query block: Moving on to `CC(C)N1C(=O)C2(CCN(C)CC2)c2cc(F)ccc21`
Result block: -110

====

Measured cytotoxicity at 10 µM of individual entries
Assay: Toxicity liver stage against HepG2, at 10uM
Assay type: cell-based
Design: test concentration 10 uM, cell line HepG2-A16-CD81EGFP
Details: human, HepG2-A16-CD81EGFP cells; read-out: INHIBITION

In the examples that follow, each entry is paired with its recorded cytotoxicity at 10 µM.
1) COc1cccc(S(=O)(=O)N2C[C@@H](N(C)C)[C@H](C(C)C)C2)c1	-51.2%
2) Cc1nn(CC(C)C)c(C)c1CC(=O)N1CCCC(CNS(C)(=O)=O)C1 (configuration not stated)	0.246%
3) CC(C)c1nn(C)c(N2CCOCC2)c1CNCCS(C)(=O)=O	-8.36%
4) CC(C)NC(=O)[C@H]1C[C@@H]2[C@@H](C1)OCCN2Cc1cnn(C)c1	5.68%

Query block: Please give the measured cytotoxicity at 10 µM for this molecule: `O=C(c1ccc[nH]1)N1CCCn2c(CNC3CCC3)nnc2C1`
Result block: -105%

Query block: Try the molecule `COc1ncc(CN2CC[C@@](C)(O)[C@H](Oc3cccc(F)c3)C2)cn1`
Result block: 1.68%

Query block: Record: `CC(C)c1ccc(CS(=O)(=O)CC(=O)NCc2ccccc2F)cc1`
Result block: 8.31%

Query block: How about `CCNC(=O)CN(Cc1ccoc1)C1CCCCC1` ?
Result block: 7.59%

Query block: Entry `CN(C)C(=O)CN1CCC2(CC1)CC(=O)c1ccc3ccccc3c1O2` please
Result block: 6.17%

====

Experiment: Toxicity liver stage against HepG2, at 10uM
Format: cell-based
Set-up: test concentration 10 uM, cell line HepG2-A16-CD81EGFP
Conditions: human, HepG2-A16-CD81EGFP cells; read-out: INHIBITION
recorded-endpoint: cytotoxicity at 10 µM (%)
Reply numerically in %, unit not repeated.

Please review the entries below; each comes with its answer.
1) CN1CCCCC12CCN(c1nncs1)CC2	6.89
2) COc1ccccc1CC(=O)N1CCC(NCc2cc[nH]c2)CC1	0.593
3) COC(=O)c1ccccc1NS(=O)(=O)c1c(C)nn(C)c1C	-4.12
4) c1cncc(N2CCOC3(CCCN(c4nncs4)C3)C2)c1 (stereo not given)	6.56
5) OC1(CNCc2csc(-c3ncccn3)n2)CCCNC1 (stereo not given)	-10.7

Query block: Given COc1ccccc1CN1CCCC(n2cccn2)C1 (stereo not given) , state its recorded cytotoxicity at 10 µM.
Result block: 2

Query block: Field entry: Cc1nc(CN2CCCC(N(C)Cc3nccn3C)C2)no1 (stereo not given)
Result block: -16.8

Query block: What do we get for Cc1nnn2c1COC(CNCc1nccs1)C2 (stereo not given) ?
Result block: 1.71

Query block: Here is the next compound: `Cc1cc(S(=O)(=O)N2CCC(S(C)(=O)=O)CC2)ccc1F`
Result block: 6.25

Query block: // next record `CC(C)c1nccc([C@@H]2C[C@@H]3CCN(Cc4ccco4)C[C@H]3O2)n1`
Result block: 1.1
